tested on: MT4 cells; test: Cytotoxicity for non-infected MT4 cells (viable cell count); settings: 50% reduction of viable cells in non-infected MT4 cell cultures, 5 days
# if measured HIV-induced cyto-pathogenicity CD50 < 30 µM: Condition met  # else: Condition not met

1) CCc1cn([C@H]2C[C@H](F)[C@@H](CO)O2)c(=O)[nH]c1=O; Condition not met
2) Nc1ccn([C@H]2CC[C@@H](CO)O2)c(=O)n1; Condition not met
3) [N-]=[N+]=N[C@H]1C[C@H](n2ccc(=O)[nH]c2=O)O[C@@H]1CO; Condition not met
4) O=c1ccn([C@H]2C[C@H](F)[C@@H](CO)O2)c(=O)[nH]1; Condition met
5) Nc1ccn([C@H]2C[C@H](F)[C@@H](CO)O2)c(=O)n1; Condition met
6) CCc1cn([C@H]2C[C@H](N=[N+]=[N-])[C@@H](CO)O2)c(=O)[nH]c1=O; Condition not met
7) CCc1cn([C@H]2CC[C@@H](CO)O2)c(=O)[nH]c1=O; Condition not met
